target.of.assay: LIGHT on the surface of HEK293-LIGHT stable cells (human, UniProt O43557 1-240)
Sequence (O43557 whole entry): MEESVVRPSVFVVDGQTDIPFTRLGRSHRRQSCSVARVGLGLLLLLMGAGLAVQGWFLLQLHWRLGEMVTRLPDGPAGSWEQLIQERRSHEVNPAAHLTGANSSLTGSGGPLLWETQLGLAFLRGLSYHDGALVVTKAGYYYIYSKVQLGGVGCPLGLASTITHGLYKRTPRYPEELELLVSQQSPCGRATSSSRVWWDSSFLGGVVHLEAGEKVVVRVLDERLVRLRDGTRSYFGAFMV
assay.notes: cell-based or functional assay
property.name: IC50, LTβR NF-κB luciferase reporter, HEK293-LIGHT cells (µg/mL)
Could you give me the number in µg/mL? Just the number is fine.

binder: hum_LT-m37-11 (antibody, human IgG4, V domains shown, humanized from LT-m37) VH: QVQLVQSGAEVKKPGASVKVSCKASGYSFTGYFINWVRQAPGQGLEWIGRIYPYNVNTFYNQNFKGRATMTADKSTSTAYMELSSLRSEDTAVYYCGRGTHYYGSSGAMDYWGQGTLVTVSS VL: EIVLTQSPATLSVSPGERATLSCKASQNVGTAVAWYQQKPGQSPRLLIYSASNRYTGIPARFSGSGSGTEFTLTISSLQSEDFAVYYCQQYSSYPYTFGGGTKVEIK
unit.label: µg/mL
measured.result: 2.93

binder: hum_LT-m37-2 (antibody, human IgG4, V domains shown, humanized from LT-m37) VH: QVQLVQSGAEVKKPGASVKVSCKASGYSFTGYFINWVRQAPGQGLEWIGRIYPYNVNTFYNQNFKGRATLTADKSTSTAYMELSSLRSEDTAVYYCGRGTHYYGSSGAMDYWGQGTLVTVSS VL: EIVLTQSPATLSVSPGERATLSCKASQNVGTAVAWYQQKPGQSPRLLIYSASNRYTGIPARFSGSGSGTEFTLTISSLQSEDFAVYFCQQYSSYPYTFGGGTKVEIK
unit.label: µg/mL
measured.result: 3.54

Query: Tell me the measured IC50, LTβR NF-κB luciferase reporter, HEK293-LIGHT cells of hum_LT-m37-10 (antibody, human IgG4, V domains shown, humanized from LT-m37) VH: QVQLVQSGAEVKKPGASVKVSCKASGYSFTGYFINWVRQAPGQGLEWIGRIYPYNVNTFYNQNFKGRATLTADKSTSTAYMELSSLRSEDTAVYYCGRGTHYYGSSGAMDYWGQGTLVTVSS VL: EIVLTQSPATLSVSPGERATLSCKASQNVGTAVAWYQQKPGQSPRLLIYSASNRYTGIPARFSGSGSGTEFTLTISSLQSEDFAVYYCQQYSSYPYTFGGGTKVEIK , please.
Result: 4.46
